Here, each record is paired with measured PBM binding z-score data.
System: RARb:RXRa (NR concentration 270 nM, RXRa partner concentration 90 nM)
Measurement description: PBM binding z-score (relative to random genomic background probes); higher = stronger binding; sequences stand for … in GC…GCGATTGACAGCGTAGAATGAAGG

See these solved cases before continuing.
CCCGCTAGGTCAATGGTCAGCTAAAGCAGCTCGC | 3.78
CGTCGAAGGTCATAGGAGGTCAGTGAAGACAGAT | 5.41
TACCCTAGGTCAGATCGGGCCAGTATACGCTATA | 3.19

Query: PBM binding z-score; subject: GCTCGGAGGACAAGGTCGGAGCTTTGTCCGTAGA
1.59

Any idea what its PBM binding z-score is? The sequence is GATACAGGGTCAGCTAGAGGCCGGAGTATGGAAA
4.12

Source listed as the supplement of paper PMC6555819.
